# EXPERIMENT NOTES: Pharmacokinetic study of PSN-1 in rats after intravenous administration
# Assay type: in vivo
# CONDITION NOTES: male, Wister, rat, plasma, 3 mg/kg
Ends that are not written are not given here.
ENDPOINT LABEL: AUC(0-inf) (ng·h/mL)

FLSLIPHIVSGVASIAKHF-NH2 [PSN-1]
1760

----------
# EXPERIMENT NOTES: Pharmacokinetic study of PSN-1 in rats after intravenous administration
# Type: in vivo
# CONDITION NOTES: male, Wister, rat, plasma, 3 mg/kg
Ends that are not written are not given here.
ENDPOINT LABEL: Cmax (ng/mL)

FLSLIPHIVSGVASIAKHF-NH2 [PSN-1]
1290

----------
# EXPERIMENT NOTES: Pharmacokinetic study of PSN-1 in rats after intravenous administration
# Format: in vivo
# CONDITION NOTES: male, Wister, rat, plasma, 3 mg/kg
Ends that are not written are not given here.
ENDPOINT LABEL: Tmax (min)

FLSLIPHIVSGVASIAKHF-NH2 [PSN-1]
1.02

----------
# EXPERIMENT NOTES: Pharmacokinetic study of PSN-1 in rats after intravenous administration
# Format: in vivo
# CONDITION NOTES: male, Wister, rat, plasma, 3 mg/kg
Ends that are not written are not given here.
ENDPOINT LABEL: Vd

FLSLIPHIVSGVASIAKHF-NH2 [PSN-1]
5.23 L/kg

----------
# EXPERIMENT NOTES: Pharmacokinetic study of PSN-1 in rats after intravenous administration
# Format: in vivo
# CONDITION NOTES: male, Wister, rat, plasma, 3 mg/kg
Ends that are not written are not given here.
ENDPOINT LABEL: clearance

FLSLIPHIVSGVASIAKHF-NH2 [PSN-1]
29.7 mL/min/kg

----------
# EXPERIMENT NOTES: Pharmacokinetic study of PSN-1 in rats after intravenous administration
# Format: in vivo
# CONDITION NOTES: male, Wister, rat, plasma, 3 mg/kg
Ends that are not written are not given here.
ENDPOINT LABEL: half-life

FLSLIPHIVSGVASIAKHF-NH2 [PSN-1]
2.08 h

----------
# EXPERIMENT NOTES: Pharmacokinetic study of PSN-1 in rats after intravenous administration
# Format: in vivo
# CONDITION NOTES: male, Wister, rat, plasma, 3 mg/kg
Ends that are not written are not given here.
ENDPOINT LABEL: AUC(0-t) (ng·h/mL)

FLSLIPHIVSGVASIAKHF-NH2 [PSN-1]
1660
